- experimental_system: recombinant human CK2 (Homo sapiens (Human))
- Sequence (P68400 whole entry): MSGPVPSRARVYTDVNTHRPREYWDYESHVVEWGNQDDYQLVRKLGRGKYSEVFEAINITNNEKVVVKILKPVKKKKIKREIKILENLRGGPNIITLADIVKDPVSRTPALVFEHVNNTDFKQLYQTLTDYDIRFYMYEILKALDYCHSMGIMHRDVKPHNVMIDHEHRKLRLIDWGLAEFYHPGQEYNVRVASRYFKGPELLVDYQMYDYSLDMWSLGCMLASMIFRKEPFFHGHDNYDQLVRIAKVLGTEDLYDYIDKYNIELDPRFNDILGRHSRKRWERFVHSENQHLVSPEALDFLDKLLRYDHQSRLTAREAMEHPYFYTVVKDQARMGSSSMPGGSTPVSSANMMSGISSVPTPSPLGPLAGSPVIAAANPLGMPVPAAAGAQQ
- Sequence (P67870 whole entry partner): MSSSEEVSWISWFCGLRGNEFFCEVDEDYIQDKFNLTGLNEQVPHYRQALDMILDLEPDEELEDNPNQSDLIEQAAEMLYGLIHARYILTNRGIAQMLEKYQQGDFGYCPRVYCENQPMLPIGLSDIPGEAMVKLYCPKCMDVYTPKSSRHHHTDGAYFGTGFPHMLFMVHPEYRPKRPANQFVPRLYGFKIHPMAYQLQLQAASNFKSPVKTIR
- assay_overview: CK2 assay (cell-free, 33P-ATP filter plate)
- Type: biochemical
- assay_conditions: 500 nM compound, cell-free assay; read-out: CK2: % inh 500 nM
reported_metric: inhibition at 0.5 µM (%)

Example cases with answers are listed next.
O=C(O)c1ccc2c(c1)nc(N1CCc3ccccc31)c1ccncc12	90.2
Cc1cnc(CNC(=O)c2ccc3c(c2)nc(N2CCN(C)CC2)c2ccsc23)cn1	-15

A = CCc1cccc(Nc2nc3cc(C(=O)O)ccc3c3cnccc23)c1
B = CNc1ncc2c(n1)c(Nc1ccccc1)nc1cc(C(=O)OC)ccc12
C = O=C(O)c1ccc2c(c1)nc(Nc1ccccc1)c1cccnc12
[Q] Ordering: ascending inhibition at 0.5 µM. Output spec: labels arranged per the requested ranking.
[A] B, C, A
(B: -12.1%, C: 25.5%, A: 101%)

====

- experimental_system: recombinant human PIM1 (Homo sapiens (Human))
- Sequence (P11309 whole entry): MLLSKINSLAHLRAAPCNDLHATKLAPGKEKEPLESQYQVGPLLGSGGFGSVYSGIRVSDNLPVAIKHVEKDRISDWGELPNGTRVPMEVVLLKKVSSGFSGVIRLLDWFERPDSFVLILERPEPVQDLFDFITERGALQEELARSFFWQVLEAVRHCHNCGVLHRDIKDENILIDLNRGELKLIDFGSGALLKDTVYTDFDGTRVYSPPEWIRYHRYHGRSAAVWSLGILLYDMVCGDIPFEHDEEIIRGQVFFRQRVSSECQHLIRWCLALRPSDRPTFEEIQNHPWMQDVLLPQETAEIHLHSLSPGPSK
- assay_overview: PIM-1 kinase activity in cell-free in vitro assay
- Assay type: biochemical
- assay_conditions: 500 nM compound, cell-free assay; read-out: PIM-1: % inh 500 nM
reported_metric: inhibition at 0.5 µM (%)

Reference set, count: 3
O=C(NC1CC1)c1ccc2c(c1)nc(NC1CC1)c1nc(NC3CC3)ncc12	-11.9
CCN(CC)CCNc1nc2cc(-c3nnn[nH]3)ccc2c2sccc12	87.3
O=C(O)c1ccc2c(c1)nc(Nc1ccc(OCc3ccccc3)cc1)c1ccncc12	44.3

A = CCn1c2ccccc2c2cc(Nc3nc4cc(C(=O)O)ccc4c4cnccc34)ccc21
B = NC(=O)c1ccc2c(c1)nc(Nc1ccc(F)c(Cl)c1)c1ccncc12
[Q] Kindly compare A with B and tell me which has the lower inhibition at 0.5 µM figure. Could you answer with the label of the item you picked?
[A] B

P = O=C(O)c1ccc2c(c1)nc(Nc1cccc(F)c1)c1cccnc12
Q = O=C(O)c1ccc2c(c1)nc(Nc1ccc(F)c(Cl)c1)c1ncccc12
R = NC(=O)c1cc(Cl)cc(Nc2nc3cc(C(=O)O)ccc3c3cnccc23)c1
S = CN(C)CCNc1nc2cc(-c3nnc[nH]3)ccc2c2sccc12
[Q] Rank descending by inhibition at 0.5 µM. I would appreciate it if you listed the labels in the requested order.
[A] R, P, S, Q
(R: 90.5%, P: 37.8%, S: -2.14%, Q: -15.5%)

====

Listed here are compounds together with their documented IC50.
- Test system: Jurkat
- assay_overview: Cell proliferation modulatory activity, Jurkat
- Format: cell-based
- assay_conditions: Homo sapiens

These solved cases illustrate the format of a correct answer.
Cc1ccc(C(N)=O)cc1Nc1nc2cc(C(=O)O)ccc2c2cnccc12	> 30 µM
C#Cc1cccc(Nc2nc3cc(C(=O)NC)ccc3c3cncnc23)c1	1.95 µM

[Q] I have this compound here, O=C(O)c1ccc2c(c1)nc(Nc1cncc(C3CC3)c1)c1ccncc12 [drawing 1619] , and I need its recorded IC50.
[A] > 50 µM

====

- Tested on: HCT-116 human colorectal carcinoma cells
- assay_overview: Cell-proliferation assay using Alamar Blue dye;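 further: cells exposed to compound for about 4 days, then Alamar Blue added and dye fluorescence read after about 4 h, compared with medium-only control wells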
- Format: cell-based
- assay_conditions: Homo sapiens, HCT-116, read-out: HCT-116 (uM), cell proliferation modulatory activity, HCT-116, second column
reported_metric: IC50

Study these solved cases before continuing.
COc1cc(Nc2nc3cc(-c4nnn[nH]4)ccc3c3sccc23)cc(OC)c1	15 µM
O=C(O)c1cc(F)cc(Nc2nc3cc(C(=O)O)ccc3c3sccc23)c1	> 10 µM

Now consider the entry below.
[Q] Consider the compound CC(C)Oc1cccc(Nc2nc3cc(-c4nnn[nH]4)ccc3c3sccc23)c1 and give its measured IC50.
[A] > 10 µM
